Target: T1, Bio-P19 member A2E-13 (chain 2: C-terminal BirA substrate peptide (BSP), enzymatically biotinylated; its letters are not printed in the patent and it is left out)
T1 construct: also called biotinylated control peptide A2E-13/HLA-A*02:01 monomer
T1 sequence (b2m, as listed by the source): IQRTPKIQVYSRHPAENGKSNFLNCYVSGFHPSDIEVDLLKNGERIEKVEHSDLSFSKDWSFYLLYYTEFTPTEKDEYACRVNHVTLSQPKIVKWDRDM
Assay: phage ELISA, streptavidin plate, anti-M13-HRP
OBSERVED PROPERTY: binding result

{"columns": ["BINDER", "MEASURED"],
 "data": [
  ["PSA146/HLA-A*02:01-specific scFv phage clone #17 (scFv, V domains shown) VH: QMQLVQSGAEVKKPGESLKISCKGSGYSFTSYWIGWVRQMPGKGLEWMGIIYPGDSDTRYSPSFQGQVTISADKSISTAYLQWSSLKASDTAMYYCARLVVPDAFDIWGQGTMVTVSS VL: QSVVTQPPSVSAAPGQKVTISCSGSSSNIGNNYVSWYQQLPGTAPKLLIYDNYKRPSGIPDRFSGSKSGTSATLGITGLQTGDEADYYCGTWDSSLSAGVFGGGTKLTVLG", "no binding"],
  ["PSA146/HLA-A*02:01-specific scFv phage clone #18 (scFv, V domains shown) VH: QVQLVQSGAEVKKPGESLKISCKGSGYSFTSYWIGWVRQMPGKGLEWMGIIYPGDSDTRYSPSFQGQVTISADKSISTAYLQWSSLKASDTAMYYCARWGSRGFLDAFDIWGQGTMVTVSS VL: QSVVTQPPSVSAAPGQRVTISCSGSSSNIGNNYVSWYQQLPGAAPRLLIYDNDKRPSGIPDRFSGSKSGTSATLGITGLQTGDEADYYCGTWDSSLSSGVFGGGTKLTVLG", "no binding"],
  ["PSA146/HLA-A*02:01-specific scFv phage clone #6 (scFv, V domains shown) VH: EVQLVQSGAEVKKPGASVKVSCKASGYTFTGYYIHWVRQAPGQGLEWMGGFDPEDGETIYAQKFQDRVTMTADTSTDTAYMELSSLRSEDTAVYYCARYGFDYWGQGTLVTVSS VL: QAVVTQEPSLTVSPGGTVTLTCASSTGAVTSGYYPNWFQLKPGQAPRALIYTTGKKHSWAPARFSGSLLGGKAALTLSGVQPEDEAEYYCLLYSGGVWVFGGGTKLTVLG", "no binding"]
]}

Source: patent US20200087400A1
